Hey, just so you know, these numbers are from paper PMC5540273.

test system: MAP4K5; conditions: concentration: 1 μM, replicates: in singlicate; n = 1;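 note: KINOMEscan kinase panel screen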
Measurement Kind: %Inh (%)
Give bare numbers, in %.

These recorded examples may help you get a feel for the data.
Molecule	Measured Target	Measured Result
COc1ccc(Nc2nccc(NCCNC(=O)c3cc4ccccc4s3)n2)cc1 [GSK1379896]	MAP4K5	8
Cc1ccc(C(=O)Nc2ccc(Nc3ccnc4cc(-c5nccs5)ccc34)cc2O)cc1.Cl [GW494702]	MAP4K5	71
CNC(=O)c1ccccc1Nc1nc(Nc2ccc(N3CCOCC3)cc2)ncc1Cl.Cl [GSK1576028]	MAP4K5	81
Cl.Cl.NCC(NC(=O)c1cc(-c2ccccc2)c(-c2ccnc3[nH]ccc23)s1)c1ccccc1 (centres unmarked) [GSK1321561]	MAP4K5	24
Cl.c1ccc(-c2ccc3c(Nc4ccc5[nH]ncc5c4)ccnc3c2)nc1 [GW440137]	MAP4K5	0

Provide %Inh values for the following items, in order.
1. Fc1ccc(-c2ncn(C3CCNCC3)c2-c2ccnc(Oc3ccc(-c4ccccc4)cc3)n2)cc1 [SB-245391]
2. COc1cc(Nc2ncc3c(C)nc(-c4cc5ccccc5[nH]4)n3n2)cc(OC)c1OC [GW869516]
3. CN(c1ccc(NC(=O)Nc2cc(C(F)(F)F)ccc2F)cc1)c1ccnc(Nc2ccc(S(N)(=O)=O)cc2)n1 [GW809893]

1. 26
2. 11
3. 99.2
